# procedureDetails: Stability of a compound in human serum assessed as half life at 91 mg/mL incubated for 0 to 144 hrs by HPLC-UV analysis
# Format: ADME, cell-free
# assaySetup: time 0-144 hrs
*1 amine or outer side, *2 acyl side, *3 side chain or, on linkers, in order; H or OH if unused. Where a SMILES comes first, the peptide text is derived from it. Bridges are numbered along the chain shown (N, C = ends). oXylylene = c1ccc(C[*:2])c(C[*:1])c1
Each entry below carries its reported half-life at 91 mg/mL.
Write the value in days as a bare number.

- molecule: "CC[C@H](C)[C@@H]1NC(=O)[C@@H](NC(=O)[C@H](C)NC(=O)[C@H](Cc2ccccc2)NC(=O)[C@H](CC(C)C)NC(=O)CNC(C)=O)CSCc2ccccc2CSC[C@@H](C(=O)N[C@@H](C)C(=O)N[C@@H](CO)C(=O)N[C@H](C(=O)N[C@H](C(=O)N[C@@H](CCCCN)C(=O)NCC(=O)N[C@@H](CC(C)C)C(N)=O)[C@@H](C)CC)C(C)C)NC(=O)[C@H](CCCCN)NC(=O)[C@H](CCCCN)NC1=O (Ac-GLFACIKKCASVIKGL-NH2; linker 5-9 via oXylylene)"
  half-life at 91 mg/mL, days: 5.95

Now look at this entry.
Kindly note the recorded half-life at 91 mg/mL for CC[C@H](C)[C@H](NC(=O)[C@@H](NC(=O)[C@H](CO)NC(=O)[C@@H]1CSCc2ccccc2CSC[C@H](NC(=O)[C@@H](NC(=O)[C@H](C)NC(=O)[C@H](Cc2ccccc2)NC(=O)[C@H](CC(C)C)NC(=O)CNC(C)=O)C(C)C)C(=O)N[C@@H](CCCCN)C(=O)N[C@@H](CCCCN)C(=O)N[C@@H](C(C)C)C(=O)N1)C(C)C)C(=O)N[C@@H](CCCCN)C(=O)NCC(=O)N[C@@H](CC(C)C)C(N)=O (Ac-GLFAVCKKVCSVIKGL-NH2; linker 6-10 via oXylylene) , which is 5.96
